Would you mind telling me the reported k2 of each entry?
measurement-target: T1, Caspase-3, P42574
T1 chain: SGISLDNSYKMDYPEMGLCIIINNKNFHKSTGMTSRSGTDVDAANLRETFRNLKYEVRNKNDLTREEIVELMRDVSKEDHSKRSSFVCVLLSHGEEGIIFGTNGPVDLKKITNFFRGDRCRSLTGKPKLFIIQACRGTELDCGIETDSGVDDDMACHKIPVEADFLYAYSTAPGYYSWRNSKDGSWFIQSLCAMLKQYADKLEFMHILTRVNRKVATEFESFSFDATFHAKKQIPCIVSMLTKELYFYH
assay-info: cell-based or functional assay
Give bare numbers, in M⁻¹ s⁻¹.

[
  {
    "binder": "DEVD (modifications not checked) [Cbz-Asp-Glu-Val-AAsp-CH═CH-CONHCH2Ph]",
    "reported-endpoint": "k2",
    "recorded-number": "1.75e+06"
  }
]

Give measured k2 for every item shown.
1. DEVD (modifications not checked) [Cbz-Asp-Glu-Val-AAsp-CH═CH-COOCH2Ph]
2. LETD (modifications not checked) [Cbz-Leu-Glu-Thr-AAsp-CH═CH-COOEt]
3. DEVD (modifications not checked) [Cbz-Asp-Glu-Val-AAsp-CH═CH-COOEt (trans)]

Response:
1.7e+06
5560
2.13e+06
